Field: R4 (percent of red blood cells in the positive gate R4). Provide a value for each of the binders that follow.
target: T1, cynomolgus CD47 on erythrocytes (cynomolgus, UniProt A0A5F8AK49 19-323 (rhesus entry)); experiment: flow cytometry on cynomolgus red blood cells (cy807 RBC), Alexa Fluor 647 channel
T1 construct: whole, on cells; also called cynomolgus RBCs
Write it as a number; the unit % goes unstated.

Q: Which R4 (percent of red blood cells in the positive gate R4) is listed for anti-MDR1 antibody MRK16 (recombinant, human IgG1/Kappa) (antibody, V domains shown) VH: EVILVESGGGLVKPGGSLKLSCAASGFTFSSYTMSWVRQTPEKRLEWVATISSGGGNTYYPDSVKGRFTISRDNAKNNLYLQMSSLRSEDTALYYCARYYRYEAWFASWGQGTLVTVSA VL: DVLMTQTPVSLSVSLGDQASISCRSSQSIVHSTGNTYLEWYLQKPGQSPKLLIYKISNRFSGVPDRFSGSGSGTDFTLKISRVEAEDLGVYYCFQASHFPRTFGGGTKLEIK ?
Result: 0.801

Q: Which R4 (percent of red blood cells in the positive gate R4) is listed for anti-CD47 antibody 5F9 (antibody, human IgG1, V domains shown, Variable regions cloned on human IgG1 / human kappa constant regions; also called 5F9/5F9; KT14) VH: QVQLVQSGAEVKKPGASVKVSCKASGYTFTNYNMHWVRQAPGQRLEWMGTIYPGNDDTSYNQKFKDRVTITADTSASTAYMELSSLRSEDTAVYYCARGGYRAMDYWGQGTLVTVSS VL: DIVMTQSPLSLPVTPGEPASISCRSSQSIVYSNGNTYLGWYLQKPGQSPQLLIYKVSNRFSGVPDRFSGSGSGTDFTLKISRVEADVGVYYCFQGSHVPYTFGQGTKLEIK ?
Result: 99.8

Q: Which R4 (percent of red blood cells in the positive gate R4) is listed for KBisP1.1 bispecific antibody (15D3 IgG1 DD/5F9 IgG1 KK/MRK16) (bispecific antibody, V domains shown, 15D3 VH on human IgG1 with K392D and K409D (DD), 5F9 VH on human IgG1 with E356K and D399K (KK), EU numbering; also called KNJYBisP1.1; KBis1.1) VH 1: EVKVVESGGVLVRPGGSLKLSCAASGFTFSRYTMSWVRQTPEKRLEWVATISSGGGNTYYPDSVKGRFTVSRDNAMSSLYLQMSSLRSEDTALYYCARYGAGDAWFAYWGQGTLVTVSA VH 2: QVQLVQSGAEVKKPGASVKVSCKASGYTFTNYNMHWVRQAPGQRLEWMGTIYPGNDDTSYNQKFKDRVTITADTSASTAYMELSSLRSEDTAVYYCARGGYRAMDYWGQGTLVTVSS VL: DVLMTQTPVSLSVSLGDQASISCRSSQSIVHSTGNTYLEWYLQKPGQSPKLLIYKISNRFSGVPDRFSGSGSGTDFTLKISRVEAEDLGVYYCFQASHFPRTFGGGTKLEIK ?
Result: 0.483

Q: Which R4 (percent of red blood cells in the positive gate R4) is listed for 5F9/MRK16 (anti-CD47 antibody with two 5F9 heavy chains and two MRK16 light chains) (antibody, human IgG1, V domains shown, Human IgG1 / kappa constant regions; also called KT14/MRK16 monoclonal; KT14_MRK16) VH: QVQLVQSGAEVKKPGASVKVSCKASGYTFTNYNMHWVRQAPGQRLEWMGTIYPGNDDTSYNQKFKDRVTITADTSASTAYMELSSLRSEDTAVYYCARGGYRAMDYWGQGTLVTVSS VL: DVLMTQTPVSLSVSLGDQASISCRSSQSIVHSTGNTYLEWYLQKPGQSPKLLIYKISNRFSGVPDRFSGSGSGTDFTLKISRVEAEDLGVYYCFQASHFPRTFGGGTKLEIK ?
Result: 0.717
